Provenance of the data: patent US8536332B2

Assignment: determine reported melting point for the given compounds.

Exam item: Any idea what its melting point is? The compound is COc1cc(-c2ccc3ncc(NC(=S)NC(C)(C)C)nc3n2)ccc1O [Compound 652]
Marked response: 213 to 215 °C

Exam item: // query melting point value for entry COc1ccc(-c2ccc3ncc(NC(=O)NC(C)C)nc3n2)cc1OC [Compound 567]
Marked response: 233 to 236 °C

Exam item: Name the reported melting point value associated with the compound COc1ccc(NC(=O)Nc2cnc3ccc(-c4ccc(O)c(OC)c4)nc3n2)cc1 [Compound 625]
Marked response: 235 to 238 °C

Exam item: Any idea what melting point was measured for COc1cc(-c2ccc3ncc(NC(=O)Nc4cccc([N+](=O)[O-])c4)nc3n2)ccc1O [Compound 618] ?
Marked response: 274 to 276 °C

Exam item: Record request: melting point value, item CCN(CC)C(=O)Nc1cnc2ccc(-c3ccc(O)c(OC)c3)nc2n1 [Compound 632]
Marked response: 214 to 216 °C

Exam item: Can you look up the measured melting point of CCNC(=S)Nc1ccc2ncc(Nc3ccc(C(C)=O)cc3)nc2n1 [Compound 467] for me?
Marked response: 232 °C

Exam item: melting point for COc1cc(-c2ccc3ncc(NC(=O)N(C)c4ccc(C(C)C)cc4)nc3n2)ccc1O [Compound 635] ?
Marked response: 226 to 228 °C

Exam item: What value of measured melting point is listed for CCCOc1ccc(-c2cnc3ccc(NC(=O)NCC)nc3n2)cc1 [Compound 133] ?
Marked response: 258.7 °C

Exam item: # get_value(readout='melting point', item= Cc1cc(-c2ccc3ncc(NC(=O)NC4CCCCC4)nc3n2)cc(C)c1O [Compound 584] )
Marked response: 247 to 250 °C

Exam item: Name the recorded melting point for COCCNC(=S)Nc1ccc2ncc(Nc3cc(OC)c(OC)c(OC)c3)nc2n1 [Compound 705] .
Marked response: 243 to 245 °C

Exam item: Data request, read-out melting point, for CCCNC(=S)Nc1ccc2ncc(Nc3cc(OC)c(OC)c(OC)c3)nc2n1 [Compound 501]
Marked response: 243 °C

Exam item: May I ask what melting point has been recorded for CCNC(=O)Nc1ccc2ncc(-c3cc(OC)ccc3OC)nc2n1 [Compound 145] ?
Marked response: 207 to 209 °C

Exam item: Would you kindly share the measured melting point for CCNC(=O)Nc1cnc2ccc(-c3ccc(O)cc3)nc2n1 [Compound 182] ?
Marked response: 277 to 279 °C

Exam item: # lookup: melting point of CCNC(=O)Nc1ccc2ncc(-c3c(F)cccc3OC)nc2n1 [Compound 137]
Marked response: 236 to 239 °C

Exam item: Can you look up the measured melting point of CCNC(=S)Nc1cnc2ccc(Nc3ccc(C)c(NS(C)(=O)=O)c3)nc2n1 [Compound 207] for me?
Marked response: 236 °C

Exam item: What value of melting point has been reported for the following compound? CCNC(=O)Nc1cnc2ccc(-c3ccc(Cl)cc3)nc2n1 [Compound 6]
Marked response: 276 °C

Exam item: May I ask what melting point has been recorded for COc1cc(Nc2cnc3ccc(NC(=S)NCc4ccco4)nc3n2)cc(OC)c1OC [Compound 708] ?
Marked response: 228 °C

Exam item: Look at this compound and give its reported melting point. CCNC(=O)Nc1ccc2ncc(-c3cccc(C)c3C)nc2n1 [Compound 107]
Marked response: 260 °C

Exam item: I'd like to know its melting point. The compound in question is CCNC(=O)Nc1ccc2ncc(-c3cc(Cl)cc(Cl)c3)nc2n1 [Compound 90]
Marked response: 298 to 305 °C

Exam item: Entry under review: CNC(=O)Nc1cnc2ccc(-c3ccc(O)c(OC)c3)nc2n1 [Compound 172] . Reported melting point?
Marked response: 242 to 244 °C

Exam item: melting point lookup needed for CCNC(=O)Nc1ccc2ncc(-c3cccc(OC)c3OC)nc2n1 [Compound 68] , thanks.
Marked response: 182 to 185 °C

Exam item: For O=C(Nc1ccccc1)Nc1cnc2ccc(Nc3ccccc3)nc2n1 [Compound 14] , what is its reported melting point?
Marked response: 251 °C

Exam item: Value lookup for melting point; key = CN(C)c1ccc(NC(=O)Nc2cnc3ccc(-c4cc(Cl)c(O)c(Cl)c4)nc3n2)cc1 [Compound 555]
Marked response: 259 to 262 °C

Exam item: I would be grateful if you could share the reported melting point for CCNC(=O)Nc1ccc2ncc(Nc3ccc(O)cc3C)nc2n1 [Compound 394] .
Marked response: 272 °C

Exam item: Entry CCNC(=O)Nc1ccc2ncc(-c3cc(C)cc(Br)c3OC)nc2n1 [Compound 110] has what melting point?
Marked response: 228 to 230 °C

Exam item: I have this compound here, CCNC(=O)Nc1ccc2ncc(-c3cc(C(C)=O)ccc3F)nc2n1 [Compound 79] , and I need its recorded melting point.
Marked response: 238.1 to 241.8 °C

Exam item: Name the recorded melting point for CCNC(=O)Nc1cnc2ccc(-c3ccc(C)c(N)c3)nc2n1 [Compound 180] .
Marked response: > 320 °C

Exam item: Consider the compound shown here: CCCCCCNC(=O)Nc1cnc2ccc(-c3ccc(O)c(OC)c3)nc2n1 [Compound 627] What is its recorded melting point?
Marked response: 234 to 235 °C

Exam item: State the recorded melting point for this entry: C=CCNC(=O)Nc1cnc2ccc(-c3ccc(O)c(OC)c3)nc2n1 [Compound 18]
Marked response: 211 to 213 °C

Exam item: // query melting point value for entry CC(=O)NCC(=O)Nc1ccc2ncc(Nc3ccc(C)cc3)nc2n1 [Compound 66]
Marked response: 276 to 279 °C

Exam item: Give its melting point value. Item: COc1cc(Nc2cnc3ccc(NC(=S)NC4CCCC4)nc3n2)cc(OC)c1OC [Compound 509]
Marked response: 246 °C

Exam item: Dear colleague, I am looking for the recorded melting point of the following compound: CCNC(=O)Nc1cnc2ccc(-c3ccncc3)nc2n1 [Compound 7]
Marked response: 211 °C

Exam item: Need melting point of CCNC(=O)Nc1ccc2ncc(Nc3ccccc3)nc2n1 [Compound 64] , thanks.
Marked response: 229 to 231 °C

Exam item: Which melting point is listed for CCNC(=O)Nc1ccc2ncc(Nc3ccc(C)cc3C)nc2n1 [Compound 398] ?
Marked response: 210 °C

Exam item: Param item = CCNC(=S)Nc1cnc2ccc(Cl)nc2n1 [Example 2] ; retrieve measured melting point.
Marked response: 215 °C

Exam item: Returns the measured melting point for the input compound. Input: COc1cc(-c2ccc3ncc(NC(=O)Nc4ccc(N(C)C)cc4)nc3n2)ccc1O [Compound 602]
Marked response: 287 to 290 °C

Exam item: State the recorded melting point for this entry: CCNC(=O)Nc1ccc2ncc(-c3cccc(C(=O)OCC)c3)nc2n1 [Compound 119]
Marked response: 222 to 223 °C
